Substrate: CC(=O)Oc1cccc2ccccc12
Experiment: spectrophotometric esterase assay
Format: biochemical, Oleispira antarctica
Details: 0.4 M NaCl, 50 mM potassium Hepes pH 8.0, 20°C
Items are presented alongside their recorded kcat.
READOUT_LABEL: kcat (s⁻¹)

PROTEIN	READOUT_LABEL	VAL
OLEI01171 (Oleispira antarctica; A224K) (protein) MSIENLSSNKSFGGWHKQYSHVSNTLNCAMRFAIYLPPQASTGAKVPVLYWLSGLTCSDENFMQKAGAQRLAAELGIAIVAPDTSPRGEGVADDEGYDLGQGAGFYVNATQAPWNRHYQMYDYVVNELPELIESMFPVSDKRAIAGHSMGGHGALTIALRNPERYQSVSAFSPINNPVNCPWGQKAFTAYLGKDTDTWREYDASLLMRAAKQYVPALVDQGEKDNFLAEQLKPEVLEAAASSNNYPLELRSHEGYDHSYYFIASFIEDHLRFHSNYLNA	kcat	1.1
OLEI01171 (Oleispira antarctica; N62A) (protein) MSIENLSSNKSFGGWHKQYSHVSNTLNCAMRFAIYLPPQASTGAKVPVLYWLSGLTCSDEAFMQKAGAQRLAAELGIAIVAPDTSPRGEGVADDEGYDLGQGAGFYVNATQAPWNRHYQMYDYVVNELPELIESMFPVSDKRAIAGHSMGGHGALTIALRNPERYQSVSAFSPINNPVNCPWGQKAFTAYLGKDTDTWREYDASLLMRAAKQYVPALVDQGEADNFLAEQLKPEVLEAAASSNNYPLELRSHEGYDHSYYFIASFIEDHLRFHSNYLNA	kcat	1.8

Just for reference, paper PMC4127636 is where these values come from.
